assay: qHTS for Inhibitors of the Aldehyde Dehydrogenase Family (ALDH1A2, ALDH1A3, ALDH2, ALDH3A1) (AID 2061307); conditions: ALDH inhibition qHTS; series mostly up to 50.3 µM; note: nearly all actives have a fitted effect of over 50% in size
Inconclusive results are not listed. Calls of active or inactive are those of the source. Calls come from the whole dose curve; as a rule, active = well fitted inhibition curve with a large enough effect; inconclusive = small, poorly fitted or top-dose-only effect; inactive = no such curve, though single readings can be large or run the other way.
Choose the fitting class; nothing outside Yes = active, No = inactive is accepted.

• CN1CCN(C2CCN(Cc3ccc(O)c4ncccc34)CC2)CC1 = No
• Cn1ncc2c(C(=O)NCC(F)F)cc(-c3cccc(C(F)(F)F)c3)nc21 = No
• CCOc1ccc2ccccc2c1C(=O)N[C@@H]1C(=O)N2[C@@H]1SC(C)(C)[C@@H]2C(=O)O = No
• NC1CCN(c2cnc3c(O)ccc(C(=O)O)c3c2)CC1 = No
• O=C(NCCCCCCCCNC(=O)C(Cl)Cl)C(Cl)Cl = Yes

Query: recorded result category for `CC(=O)Nc1ccc(OC2=NS(=O)(=O)c3ccccc32)cc1` in this test
No

Query: recorded result category for `COc1ccc(CN(Cc2ccccc2)C(=O)c2ccccc2O)cc1` in this test
No

Query: recorded result category for O=C1c2ccccc2NC(c2ccc(-c3cccc([N+](=O)[O-])c3)o2)N1O (stereo not given) in this test
Yes

Query: recorded result category for `CCOC(=O)[C@H](CCc1ccccc1)N[C@@H](C)C(=O)N1C(=O)N(C)C[C@H]1C(=O)O` in this test
No

Query: recorded result category for `Fc1cc(Nc2nc(-c3ccncc3)nc3ccccc23)ccc1N1CCCCC1` in this test
No

---

molecular target: Retinal dehydrogenase 2 (Homo sapiens) (UniProt O94788); experiment: qHTS for Inhibitors of the Aldehyde Dehydrogenase Family (ALDH1A2) Confirmation screens (AID 2061314); settings: ALDH1A2 enzyme inhibition qHTS confirmation; series mostly up to 45.9 µM; note: nearly all actives have a fitted effect of over 65% in size
Results filed as inconclusive are left out. Calls of active or inactive are those of the source. The call rests on the fitted dose curve; in most records, active means well fitted inhibition curve with a large enough effect; inconclusive means small, poorly fitted or top-dose-only effect; inactive means no such curve, though single readings can be large or run the other way.
Choose the fitting class; nothing outside active, inactive is accepted.

Query: recorded result category for `Oc1cc(NCCc2cccnc2)cc2cccnc12` in this test
inactive

---

test: BET inhibitor-based combinations targeting novel dependencies in MECOM-rearranged (r) AML: AML-194 cell line (AID 2202237; note: nearly all actives have a fitted effect of over 40% in size); details: AML-194 (MECOM-r AML) viability, CellTiter-Glo, 48 h; series mostly up to 46 µM
Inconclusive results are not listed. Activity calls are given as the source filed them. Calls follow the shape of the dose curve; as a rule, active = well fitted inhibition curve with a large enough effect; inconclusive = small, poorly fitted or top-dose-only effect; inactive = flat fitted curve, though single readings scatter.
Choose the fitting class; nothing outside Yes = active, No = inactive is accepted.

* Cc1cc2cc3c(C)cc(=O)oc3c(C)c2o1 | No
* CCOc1cc2ncc(C#N)c(Nc3ccc(F)c(Cl)c3)c2cc1NC(=O)/C=C/CN(C)C | Yes
* Cc1cnc(Nc2ccc(N3CCN(C)CC3)cc2)nc1Nc1cccc(S(=O)(=O)NC(C)(C)C)c1 | Yes
* COc1cc(C)c(Sc2cnc(NC(=O)c3ccc(CNC(C)C(C)C)cc3)s2)cc1C(=O)N1CCN(C(C)=O)CC1 (stereo not given) | Yes

Here is another compound to look at.
Query: recorded result category for COCCCOc1ccnc(CS(=O)c2nc3ccccc3[nH]2)c1C (stereo not given) in this test
No

---

Assay: BET inhibitor-based combinations targeting novel dependencies in MECOM-rearranged (r) AML: MV-4-11 cell line (AID 2202233); note: nearly all actives have a fitted effect of over 45% in size; note: potency is the fitted concentration of half-maximal effect
Conditions: MV-4-11 AML viability, CellTiter-Glo luminescence, 48 h; series mostly up to 46 µM
Experimental: Ecotropic viral insertion site 1 (EVI1) is located on chromosome 3q26.2 as part of the MECOM (MDS and EVI1 complex) locus. […] A collection of 2480 mechanistically annotated dugs (MIPE v5.0) was used to screen four 3q26.2 rearranged AML cell lines and three non-3q26.2 rearranged AML cell lines. […] Cell viability was determined by luminescence based, Cell Titer Glo assay (Promega). […] Luminescence readings were taken using a Viewlux (PerkinElmer) with a 2 s exposure time per plate. […]
Results filed as inconclusive are left out. The source made the active and inactive calls. The call rests on the fitted dose curve; in most records, active means well fitted inhibition curve with a large enough effect; inconclusive means small, poorly fitted or top-dose-only effect; inactive means no such curve, though single readings can be large or run the other way.
attributeMeasured: Potency

Recorded Potency, per entry:
- O=c1cc(-c2ccccc2)oc2cc(O)cc(O)c12: 16.6 µM (active)
- C=CC(=O)Nc1cccc(Oc2nc(Nc3ccc(N4CCN(C)CC4)cc3OC)ncc2Cl)c1: 4.68 µM (active)
- O=C(/C=C/c1ccc(O)cc1)c1ccc(O)cc1O: 11.8 µM (active)
- Nc1[nH]c(=O)ncc1F: inactive
- CNC(=O)c1ccc(Nc2ncc(C(F)(F)F)c(NCc3nccnc3N(C)S(C)(=O)=O)n2)cc1: 0.296 µM (active)
- CC1(O)CC(c2nc(-c3ccc4ccc(-c5ccccc5)nc4c3)c3c(N)nccn23)C1 (stereo not given): inactive
- COc1ccccc1[C@H](c1cccc2ccccc12)[C@@](C)(C#N)C(=O)N1CCC(c2cccc(C(F)(F)F)c2)CC1: 5.25 µM (active)
- COc1ccc(Cc2ccc(NC(N)=O)cc2)cc1-c1cccc(Cl)c1: inactive
- N[C@H](CSC(c1ccccc1)(c1ccccc1)c1ccccc1)C(=O)O: inactive

For `O=C(O)c1nc(=O)[nH]c(=O)[nH]1` , write its Potency.
inactive
